Tested on: Spinacia oleracea
protocolSummary: In vitro inhibition of basal rate of photosynthetic electron transport (Hill reaction) in active intact chloroplast thylakoid membrane of Spinacia oleracea (spinach) leaves assessed as light-driven ferricyanide reduction at 10 uM measured at 24 degC at 30 secs intervals for 10 min (reference value: 100 +/-3.1%)
Set-up: scale not given: the % may be the effect or the level left
recordedEndpoint: Activity (%)

{"substanceSmiles": "O=C1OC(=Cc2ccc(Cl)cc2)C=C1Cc1ccc(Br)cc1", "unitsOfMeasure": "%", "Activity": 89.4}
{"substanceSmiles": "O=C1OC(=Cc2cccc([N+](=O)[O-])c2)C=C1Cc1ccc(Br)cc1", "unitsOfMeasure": "%", "Activity": 66.9}
{"substanceSmiles": "O=C1OC(=Cc2ccc(Br)cc2)C=C1Cc1ccc(Br)cc1", "unitsOfMeasure": "%", "Activity": 92}
